System: UACC-62 melanoma
Assay: NCI tumour cell line growth inhibition, 48 h
readout label: TGI (µM)
Give just the numeric value; µM need not be written.

As a guide, the following entries are already answered.
>  <smiles string>
O=C(/C(=C\c1ccccc1)CN1CCOCC1)c1ccc(Br)cc1

>  <readout unit>
µM

>  <TGI>
2.98

$$$$
>  <smiles string>
O=C(/C=C1\C[C@H]2C=Nc3ccccc3C(=O)N2C1)NCCCNC(=O)/C=C1\C[C@H]2C=Nc3ccccc3C(=O)N2C1

>  <readout unit>
µM

>  <TGI>
29.3

$$$$
>  <smiles string>
O=C(N=C1N(c2ccccc2)C(=O)C(=O)N1c1ccccc1)c1ccccc1

>  <readout unit>
µM

>  <TGI>
30.2

$$$$
>  <smiles string>
Cn1cc(C2=C(c3cn(CCCO)c4ccccc34)C(=O)NC2=O)c2ccccc21

>  <readout unit>
µM

>  <TGI>
12.3

$$$$

Q: Please look up its TGI: `Cc1c2cnccc2c(C)c2c1c1cc(CO)ccc1n2C`
Ans: 1.03

###

System: MOLT-4 leukemia
Assay: NCI tumour cell line growth inhibition, 48 h
Recorded TGI values for a group of molecules are listed next.

>  <molecule>
CCOC(=O)N/N=C(\Cc1ccccc1)OCC

>  <experimental system>
MOLT-4 leukemia

>  <TGI>
> 100 µM

$$$$
>  <molecule>
CCN(CC)CCN1C=CC(C)C(C(=O)O)C1C(N)=O (stereo unspecified)

>  <experimental system>
MOLT-4 leukemia

>  <TGI>
> 100 µM

$$$$
>  <molecule>
O=C1c2ccc(O)cc2OC(c2cc(O)c(O)c(O)c2)C1O (stereo unspecified)

>  <experimental system>
MOLT-4 leukemia

>  <TGI>
51.7 µM

$$$$
>  <molecule>
CN(C)CCNc1ccc(NCCN(C)C)c2c1C(=O)c1ncsc1C2=O

>  <experimental system>
MOLT-4 leukemia

>  <TGI>
5.57 µM

$$$$
>  <molecule>
Cc1c(C(=O)O)n(-c2ccc(Cl)cc2)c2ncnc(N)c12

>  <experimental system>
MOLT-4 leukemia

>  <TGI>
> 100 µM

$$$$
>  <molecule>
C[C@@H]1CCC[C@]2(C)O[C@H]2CC[C@@](C)(O)[C@@H]2CC3=C(CO)C(=O)O[C@H]3[C@H]1O2

>  <experimental system>
MOLT-4 leukemia

>  <TGI>
> 50 µM

$$$$
>  <molecule>
CCOC(=O)C(NC(=O)CC(C)C)(NC(C)C)C(F)(F)F (stereo unspecified)

>  <experimental system>
MOLT-4 leukemia

>  <TGI>
> 100 µM

$$$$
>  <molecule>
N=C(N)SCCc1ccncc1

>  <experimental system>
MOLT-4 leukemia

>  <TGI>
> 100 µM

$$$$

Q: Query (molecule): `c1ccc([P+](CCN2Cc3ccccc3C2)(c2ccccc2)c2ccccc2)cc1` ; field requested: TGI
Ans: > 100 µM

Q: Moving on to the next molecule: `COc1cc(O)c2c(=O)c(OC)c(-c3ccc(OC)c(OC)c3)oc2c1.[Co]`
Ans: > 100 µM

Q: Same read-out for `CC(=O)c1cc2c(c(O)c1C)C(=O)C(=O)c1c(O)cccc1-2` ?
Ans: 1.44 µM

###

Tested on: OVCAR-3 ovarian
Test: NCI tumour cell line growth inhibition, 48 h
Items are presented alongside their recorded TGI.
Quick reminder: number only, in µM, skip the unit.

>  <smiles string>
C[C@@H](O)[C@H]1C(=O)N2C(C(=O)O)=C(SCCN=CN)C[C@H]12

>  <TGI / µM>
84.1

$$$$

Q: Which TGI value is on record for `CCCCc1ccc(Nc2nc(=S)c3ncn(COCCO)c3[nH]2)cc1` ?
Ans: 74.4

Q: What do you have for `CN(C)CCCN1c2ccccc2CCc2cccc([N+](=O)[O-])c21` ?
Ans: 29.8

Q: What would you report for `COc1ccc(-c2cc(-c3cc(F)c(Cl)cc3Cl)[nH]n2)cc1OC` ?
Ans: 41.3

###

Tested on: SF-539 CNS
Assay: NCI tumour cell line growth inhibition, 48 h; in the data active means GI50 below about 0.43 µM; inactive means the rest
Could you please pick one outcome from this set? active, inactive

>  <molecule>
COc1cccc(/C=N/Nc2ncnc3c2cnn3-c2cccc(OC)c2)c1

>  <assigned category>
inactive

$$$$
>  <molecule>
CC1CN1C1=CC(=O)c2c(c(CO)cn2C)C1=O (stereo unspecified)

>  <assigned category>
active

$$$$
>  <molecule>
COc1ccc2nc3cc(Cl)ccc3c(NCCCCCN3CCCCC3)c2c1

>  <assigned category>
active

$$$$
>  <molecule>
CCCCCCNC(=O)Nc1ccc2cc3ccc(NC(=O)NCCCCCC)cc3nc2c1

>  <assigned category>
inactive

$$$$
>  <molecule>
CCOC(=O)C1=C(C)N(c2ccc(OC)cc2)C2(O)C=CC(=O)C3C(=O)N(c4ccccc4)C(=O)C132 (stereo unspecified)

>  <assigned category>
inactive

$$$$

Here's the next entry for you.
Q: Which outcome was assigned to `Cn1cc(C2=C(c3cn(CCCO)c4ccccc34)C(=O)NC2=O)c2ccccc21` in this test?
Ans: inactive

###

System: SNB-75 CNS
Assay: NCI tumour cell line growth inhibition, 48 h
Attribute: TGI

>  <compound>
CN(C)CCCN1c2ccccc2CCc2cccc([N+](=O)[O-])c21

>  <experimental system>
SNB-75 CNS

>  <TGI>
24.4 µM

$$$$
>  <compound>
N#Cc1c(N)nc(Nc2cccc3ccccc23)c(C#N)c1C#N

>  <experimental system>
SNB-75 CNS

>  <TGI>
> 10 µM

$$$$
>  <compound>
N#CC(=N)c1ncn(CCO)c1NC(=O)C(F)(F)F

>  <experimental system>
SNB-75 CNS

>  <TGI>
> 100 µM

$$$$
>  <compound>
CCN(CC)c1ccc(/C=C2\SC(=O)C(Nc3nnc(-c4cccnc4SCc4ccccc4)o3)C2=O)cc1 (stereo unspecified)

>  <experimental system>
SNB-75 CNS

>  <TGI>
42.2 µM

$$$$
>  <compound>
COC(=O)[C@@H](C[C@H](Cc1ccccc1)NC(=O)c1csc([C@@H](C[C@H](C(C)C)N(C)C(=O)[C@@H](NC(=O)[C@H]2CCCCN2C)C(C)C)OC(C)=O)n1)NC(=O)OCc1ccccc1

>  <experimental system>
SNB-75 CNS

>  <TGI>
> 8.33 µM

$$$$
>  <compound>
COc1ccc(CCn2nccc2C)cc1

>  <experimental system>
SNB-75 CNS

>  <TGI>
> 100 µM

$$$$
>  <compound>
Cn1cc(C2=C(c3cn(CCSC(=N)N)c4ccccc34)C(=O)NC2=O)c2ccccc21

>  <experimental system>
SNB-75 CNS

>  <TGI>
5.84 µM

$$$$
>  <compound>
COc1ccc2c(c1)C(=O)c1c-2n(CCCNCCO)c(=O)c2ccccc12

>  <experimental system>
SNB-75 CNS

>  <TGI>
1.25 µM

$$$$
>  <compound>
S=C1NCN2CCN(CC2)CNC(=S)C(=S)NCN2CCN(CC2)CNC1=S

>  <experimental system>
SNB-75 CNS

>  <TGI>
> 100 µM

$$$$
>  <compound>
COc1ccc(S(=O)(=O)Nc2cc(/C=C\c3cc(OC)c(OC)c(OC)c3)cc(OC)c2OC)cc1

>  <experimental system>
SNB-75 CNS

>  <TGI>
> 100 µM

$$$$

Q: Find the measured TGI: item COc1ccc(OC)c(N2C(=O)/C(=C\c3ccccc3)SC2c2cc(OC)c(OC)c(OC)c2)c1 (stereo unspecified) , target or system SNB-75 CNS.
Ans: > 100 µM

Q: Try this compound next: O=C(O)C(Cc1c[nH]c2ccccc12)C(=O)NO (stereo unspecified)
Ans: > 100 µM

Q: What about this compound? `COc1cc(/C=N/c2nncs2)ccc1O`
Ans: > 100 µM

Q: Also COc1ccc(/C=C2/N=C(N/N=C\C(O)C(O)C(O)C(O)CO)NC2=O)cc1 (stereo unspecified) ?
Ans: > 100 µM

###

Recorded TGI for the following compounds
Tested on: MDA-MB-435
Assay: NCI tumour cell line growth inhibition, 48 h

Q: # query: TGI of entry O=C1CC(c2ccccc2Cl)Oc2ccccc21 (configuration not stated)
Ans: 43.7 µM

Q: Another compound to look at: CCOC(=O)C1=C(C)N(c2ccc(OC)cc2)C2(O)C=CC(=O)C3C(=O)N(c4ccccc4)C(=O)C132 (configuration not stated)
Ans: 7.47 µM

Q: Item: `O=c1[nH]nc(Cc2ccccc2)n1/N=C\CC/C=N\n1c(Cc2ccccc2)n[nH]c1=O`
Ans: > 100 µM

Q: Record: `Cc1cccc(C)c1NC(=O)/C(Cc1nc2ccc([N+](=O)[O-])cc2[nH]c1=O)=N\NC(N)=O`
Ans: > 100 µM

Q: Queued: `Cc1nn2c(C(=O)N/N=C/c3ccccc3O)c(C)nc2s1`
Ans: > 100 µM

###

Tested on: SF-268 CNS
Assay: NCI tumour cell line growth inhibition, 48 h
readout label: TGI

>  <compound>
COc1ccc(C2C=C(c3ccccc3)Nc3nnnn32)cc1 (stereo not given)

>  <TGI>
> 100 µM

$$$$
>  <compound>
CN1CCc2c(sc3ncn(N)c(=N)c23)C1

>  <TGI>
> 100 µM

$$$$

Q: Lookup: TGI / SF-268 CNS / `COc1ccc(S(=O)(=O)Nc2cc(/C=C\c3cc(OC)c(OC)c(OC)c3)cc(OC)c2OC)cc1`
Ans: > 100 µM

Q: Same read-out for `CCCCOC(=O)NC(Nc1ccc(S(N)(=O)=O)cc1)(C(F)(F)F)C(F)(F)F` ?
Ans: > 100 µM

Q: Field entry: `CCCCCCNC(=O)Nc1ccc2cc3ccc(NC(=O)NCCCCCC)cc3nc2c1`
Ans: 2.96 µM
